The reported numbers originate from patent US10738028B2.

# System: Enterococcus faecalis (EFA)
# test: MIC, two-fold agar dilution (CLSI), clinical isolates
# Format: cell-based
# measurementContext: clinical isolate EFA 15-1
propertyName: Anti-bacterial activity (MIC), strain EFA 15-1 (µg/mL)
Use µg/mL as the unit, but write only the number.

Known results for molecules:
molecule | systemName | val
O=CN(O)C[C@@H](CC1CCCC1)C(=O)N1CC2(CC2)C[C@H]1C(=O)Nc1nccs1 (stereo in doubt) [Example 40] | Enterococcus faecalis (EFA) | 4
O=C(C[C@@H](CC1CCCC1)C(=O)N1CC2(CC2)C[C@H]1C(=O)Nc1ccc(F)cn1)NO [Example 64] | Enterococcus faecalis (EFA) | 32
O=CN(O)C[C@@H](CC1CCCC1)C(=O)N1CC2(CC2)C[C@H]1C(=O)Nc1nncs1 [Example 41] | Enterococcus faecalis (EFA) | 4
CCCC[C@H](CC(=O)NO)C(=O)N1CC2(CC2)C[C@H]1C(=O)Nc1nc(C(F)(F)F)cs1 [Example 57] | Enterococcus faecalis (EFA) | 8
O=CN(O)C[C@@H](CC1CCCC1)C(=O)N1CC2(CC2)C[C@H]1c1nc2ccccc2[nH]1 [Example 42] | Enterococcus faecalis (EFA) | 16
Cc1cnc(NC(=O)[C@@H]2CC3(CC3)CN2C(=O)[C@@H](CC(=O)NO)CC2CCCC2)s1 [Example 65] | Enterococcus faecalis (EFA) | 32

Consider the record given below.
The recorded Anti-bacterial activity (MIC), strain EFA 15-1 for entry CCCC[C@H](CC(=O)NO)C(=O)N1CC2(CC2)C[C@H]1C(=O)Nc1cc(C)on1 [Example 56] equals 16

###

# System: Enterococcus faecalis (EFA)
# test: MIC, two-fold agar dilution (CLSI), clinical isolates
# Type: cell-based
# measurementContext: strain EFA 15-3
# From the text: 1. The invention adopts the two-fold agar dilution method recommended by the operating procedure of antimicrobial susceptibility testing set by American Clinical and Laboratory Standards Institute (CLSI) to determine the Minimum Inhibitory Concentration (MIC) of the test samples against the tested strains.
This listing pairs compounds with measured log10 of Anti-bacterial activity (MIC).
Remember, log10 of Anti-bacterial activity (MIC), in µg/mL.

compound | val
CCCC[C@H](CC(=O)NO)C(=O)N1CC2(CCCC2)C[C@H]1C(=O)Nc1ncc(C)s1 | 1.51

The recorded log10 of Anti-bacterial activity (MIC) for entry `O=C(C[C@@H](CC1CCCC1)C(=O)N1CC2(CC2)C[C@H]1C(=O)Nc1nccs1)NO` equals 1.51

The recorded log10 of Anti-bacterial activity (MIC) for entry `Cc1cc(NC(=O)[C@@H]2CC3(CC3)CN2C(=O)[C@@H](CC(=O)NO)CC2CCCC2)no1` equals -0.30

The recorded log10 of Anti-bacterial activity (MIC) for entry `O=C(C[C@@H](CC1CCCC1)C(=O)N1CC2(CC2)C[C@H]1C(=O)Nc1cccnn1)NO` equals 0.30

The recorded log10 of Anti-bacterial activity (MIC) for entry `O=C(C[C@@H](CC1CCCC1)C(=O)N1CC2(CC2)C[C@H]1C(=O)Nc1nncs1)NO` equals 1.20

The recorded log10 of Anti-bacterial activity (MIC) for entry `CCCC[C@H](CC(=O)NO)C(=O)N1CC2(CCCC2)C[C@H]1C(=O)Nc1cc(C)on1` equals 0.90
